Test system: Enterococcus faecium
Test: Antibacterial activity against vancomycin resistant Enterococcus faecium Van M HS-08267 assessed as inhibition of bacterial growth
Type: functional
# Lookup of reported MIC keyed by entry

{"Substance Smiles": "CN[C@H](CC(C)C)C(=O)N[C@H]1C(=O)N[C@@H](CC(N)=O)C(=O)N[C@H]2C(=O)N[C@H]3C(=O)N[C@H](C(=O)N[C@H](C(=O)N[C@@H](CS)C(=O)O)c4cc(O)cc(O)c4-c4cc3ccc4O)[C@H](O)c3ccc(c(Cl)c3)Oc3cc2cc(c3O[C@@H]2O[C@H](CO)[C@@H](O)[C@H](O)[C@H]2O[C@H]2C[C@](C)(N)[C@H](O)[C@H](C)O2)Oc2ccc(cc2Cl)[C@H]1O", "Unit Tag": "µg/mL", "MIC": 8}
{"Substance Smiles": "CN[C@H](CC(C)C)C(=O)N[C@H]1C(=O)N[C@@H](CC(N)=O)C(=O)N[C@H]2C(=O)N[C@H]3C(=O)N[C@H](C(=O)N[C@H](C(=O)NNCc4ccc(-c5ccc(Cl)cc5)cc4)c4cc(O)cc(O)c4-c4cc3ccc4O)[C@H](O)c3ccc(c(Cl)c3)Oc3cc2cc(c3O[C@@H]2O[C@H](CO)[C@@H](O)[C@H](O)[C@H]2O[C@H]2C[C@](C)(N)[C@H](O)[C@H](C)O2)Oc2ccc(cc2Cl)[C@H]1O", "Unit Tag": "µg/mL", "MIC": 4}
{"Substance Smiles": "CN[C@H](CC(C)C)C(=O)N[C@H]1C(=O)N[C@@H](CC(N)=O)C(=O)N[C@H]2C(=O)N[C@H]3C(=O)N[C@H](C(=O)N[C@H](C(=O)N[C@@H](CCCNC(=N)N)C(=O)O)c4cc(O)cc(O)c4-c4cc3ccc4O)[C@H](O)c3ccc(c(Cl)c3)Oc3cc2cc(c3O[C@@H]2O[C@H](CO)[C@@H](O)[C@H](O)[C@H]2O[C@H]2C[C@](C)(N)[C@H](O)[C@H](C)O2)Oc2ccc(cc2Cl)[C@H]1O", "Unit Tag": "µg/mL", "MIC": 128}
{"Substance Smiles": "CN[C@H](CC(C)C)C(=O)N[C@H]1C(=O)N[C@@H](CC(N)=O)C(=O)N[C@H]2C(=O)N[C@H]3C(=O)N[C@H](C(=O)N[C@H](C(=O)NNCc4ccc(-c5ccc(C(F)(F)F)cc5)cc4)c4cc(O)cc(O)c4-c4cc3ccc4O)[C@H](O)c3ccc(c(Cl)c3)Oc3cc2cc(c3O[C@@H]2O[C@H](CO)[C@@H](O)[C@H](O)[C@H]2O[C@H]2C[C@](C)(N)[C@H](O)[C@H](C)O2)Oc2ccc(cc2Cl)[C@H]1O", "Unit Tag": "µg/mL", "MIC": 2}
{"Substance Smiles": "CN[C@H](CC(C)C)C(=O)N[C@H]1C(=O)N[C@@H](CC(N)=O)C(=O)N[C@H]2C(=O)N[C@H]3C(=O)N[C@H](C(=O)N[C@H](C(=O)N/N=C/c4ccc(-c5ccc(Cl)cc5)cc4)c4cc(O)cc(O)c4-c4cc3ccc4O)[C@H](O)c3ccc(c(Cl)c3)Oc3cc2cc(c3O[C@@H]2O[C@H](CO)[C@@H](O)[C@H](O)[C@H]2O[C@H]2C[C@](C)(N)[C@H](O)[C@H](C)O2)Oc2ccc(cc2Cl)[C@H]1O", "Unit Tag": "µg/mL", "MIC": 4}
{"Substance Smiles": "CN[C@H](CC(C)C)C(=O)N[C@H]1C(=O)N[C@@H](CC(N)=O)C(=O)N[C@H]2C(=O)N[C@H]3C(=O)N[C@H](C(=O)N[C@H](C(=O)N[C@@H](CCCNC(=N)N)C(N)=O)c4cc(O)cc(O)c4-c4cc3ccc4O)[C@H](O)c3ccc(c(Cl)c3)Oc3cc2cc(c3O[C@@H]2O[C@H](CO)[C@@H](O)[C@H](O)[C@H]2O[C@H]2C[C@](C)(N)[C@H](O)[C@H](C)O2)Oc2ccc(cc2Cl)[C@H]1O", "Unit Tag": "µg/mL", "MIC": 64}

Entry source: ChEMBL document CHEMBL4808179
